Quick reference for fold change (FC) among some compounds
system: Enterobacter cloacae; experiment: Inhibition of Metallo-beta-lactamase IMP-1 in Enterobacter cloacae clinical isolate assessed as fold reduction in meropenem MIC at 64 ug/ml; conditions: dose 64.0 µg/ml
Reported endpoint: fold change (FC)

{"Compound": "CC1=C(C(=O)O)N2C(=O)[C@@H](NC(=O)Cc3ccccc3)[C@H]2SC1", "Reported": 1}
{"Compound": "O=C(Cc1ccccc1)N[C@@H]1C(=O)N2C(C(=O)O)=C(CSC(C(=O)O)c3ccccc3)CS[C@H]12 (some centres undefined)", "Reported": 64}
{"Compound": "O=C(Cc1ccccc1)N[C@@H]1C(=O)N2C(C(=O)O)=C(CS[C@@H](Cc3ccccc3)C(=O)O)CS[C@H]12", "Reported": 2}
{"Compound": "O=C(Cc1ccccc1)N[C@@H]1C(=O)N2C(C(=O)O)=C(CS[C@H](Cc3ccccc3)C(=O)O)CS[C@H]12", "Reported": 32}

====

tested on: Klebsiella pneumoniae; assay: Inhibition of Metallo-beta-lactamase IMP-28 in Klebsiella pneumoniae clinical isolate assessed as MIC for meropenem antibacterial activity at 32 ug/ml (reference value: 2 ug/ml); settings: dose 32.0 µg/ml

{"Compound": "O=C(O)c1cccc(C(=O)O)n1", "Measurement target": "Klebsiella pneumoniae", "MIC": "0.125 µg/mL"}
{"Compound": "O=C(Cc1ccccc1)N[C@@H]1C(=O)N2C(C(=O)O)=C(CSCc3ccccc3)CS[C@H]12", "Measurement target": "Klebsiella pneumoniae", "MIC": "0.5 µg/mL"}
{"Compound": "O=C(O)CSCC1=C(C(=O)O)N2C(=O)[C@@H](NC(=O)Cc3ccccc3)[C@H]2SC1", "Measurement target": "Klebsiella pneumoniae", "MIC": "0.25 µg/mL"}
{"Compound": "CC1=C(C(=O)O)N2C(=O)[C@@H](NC(=O)Cc3ccccc3)[C@H]2SC1", "Measurement target": "Klebsiella pneumoniae", "MIC": "1 µg/mL"}

====

system: Klebsiella pneumoniae; assay: Inhibition of Metallo-beta-lactamase IMP-28 in Klebsiella pneumoniae clinical isolate assessed as MIC for meropenem antibacterial activity at 64 ug/ml (reference value: 4 ug/ml); details: dose 64.0 µg/ml
Reported endpoint: MIC (µg/mL)

{"Compound": "O=C(Cc1ccccc1)N[C@@H]1C(=O)N2C(C(=O)O)=C(CS[C@@H](Cc3ccccc3)C(=O)O)CS[C@H]12", "Reported endpoint": "MIC", "Unit symbol": "µg/mL", "Value modifier": "=", "Reported": 0.5}
{"Compound": "O=C(Cc1ccccc1)N[C@@H]1C(=O)N2C(C(=O)O)=C(CSCCc3ccccc3)CS[C@H]12", "Reported endpoint": "MIC", "Unit symbol": "µg/mL", "Value modifier": "=", "Reported": 0.25}
{"Compound": "O=C(Cc1ccccc1)N[C@@H]1C(=O)N2C(C(=O)O)=C(CSCC(=O)c3ccccc3)CS[C@H]12", "Reported endpoint": "MIC", "Unit symbol": "µg/mL", "Value modifier": "=", "Reported": 0.5}
{"Compound": "O=C(Cc1ccccc1)N[C@@H]1C(=O)N2C(C(=O)O)=C(CS[C@H](Cc3ccccc3)C(=O)O)CS[C@H]12", "Reported endpoint": "MIC", "Unit symbol": "µg/mL", "Value modifier": "<", "Reported": 0.063}
{"Compound": "O=C(Cc1ccccc1)N[C@@H]1C(=O)N2C(C(=O)O)=C(CSC(C(=O)O)c3ccccc3)CS[C@H]12 (stereo not given in full)", "Reported endpoint": "MIC", "Unit symbol": "µg/mL", "Value modifier": "<", "Reported": 0.063}
